The reported numbers originate from the supplement of paper PMC9170038.

Reported apparent KD of MS2 coat protein values follow for various sequences
- Tested on: MS2 coat protein
- assay-overview: apparent KD of MS2 coat protein; designed switch direction (-1 OFF switch, 1 ON switch): -1; higher = weaker reporter binding
- protocol-conditions: input ligand: FMN 200 uM
State the answer as a number, implicitly in nM.

>  <sequence>
UCUUAUUGCAAGGAUAUGCUUUUUAUUUCUUUUGCAGAAGGUGCAACAUGAGGAUCACCCAUGUUUCCGGGCAU [JR_E6_Sub035] (Eterna round: R96, puzzle: Exclusion 6)

>  <apparent KD of MS2 coat protein / nM>
34.4

$$$$

Given the sequence UGUGUGAGACAGGAUAUGCCGGUUGUGUUGCUGGUAGAAGGGUCUACAUGAGGAUCACCCAUGUGGCCGGUUGG [Ex6 #80] (Eterna round: R97, puzzle: Exclusion 6) , write its reported apparent KD of MS2 coat protein.
19.1

State, in one line, measured apparent KD of MS2 coat protein of UCUCGCGGGCAAGGAUAUCCCACGCUGUUCUGGCCCGUGUUUGUUACAUGAGGAUCACCCAUGUGGGAGAAGGUGCACCAGGGC [Design 42] (Eterna round: R96, puzzle: Exclusion NG 2)
218

Consider the sequence GUGUCUCGUGUAGGAUAUGCGCGAGGUCUUUGUGCAGAAGGACAUGAGGAUCACCCAUGUAUUCCGCGGCGCGGGCAUGUGUCC [-29/-27 Kcal and A 18%] (Eterna round: R96, puzzle: Exclusion NG 1) and give its recorded apparent KD of MS2 coat protein.
249

Quote apparent KD of MS2 coat protein reported for AUAUUGUGAGGAUAUGAACUUAGUUUCGAAAGAUACUAAGUUCAGAAGGCACAUGAGGAUCACCCAUGUUUCUC [Long static hairpin v21] (Eterna round: R97, puzzle: Exclusion 4) please.
597
